The measured values listed here are drawn from the RNAGym collection of RNA variant scans (doi:10.1073/pnas.2313332121).

B1: TPR t1 (parent)
chain: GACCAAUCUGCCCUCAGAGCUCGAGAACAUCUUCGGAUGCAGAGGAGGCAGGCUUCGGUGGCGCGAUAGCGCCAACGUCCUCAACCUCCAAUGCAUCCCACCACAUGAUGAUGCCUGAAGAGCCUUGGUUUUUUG

variants of: B1; assay: polymerase ribozyme fitness, log enrichment relative to wild type (log ratio); higher = more active; in vitro selection for triplet polymerase activity
Lab note: anything with polymerase ribozyme fitness (log ratio) at or over -3 counts as label 1; the rest go in label 0.

Example entries and their recorded answers appear below.
>  <Input Sequence>
GACCAAUCUGCCCUCAGCGCUCGAGAACAUCUUCGGAUGCAGAGGAGGCAGGCUUCGGUGGCGCGAUAGCGCCAACGUCCUCAACCUCCAAUGCAUCCCCCCACAUGAUGAUGCCUGAAGAGCCUUGGUUUUUUG

>  <Category Label>
label 0

$$$$
>  <Input Sequence>
GACCAAUCUGCCCUCAGAGCUCGAGAACAUCUUCGGAUGCAGAGGAGGCAGGCUUCGGUGGUGCGAUAGCGCCAACGUCCUCACCCUCCAAUGCAUCCCACCACAUGAUGAUGCCUGAAGAGCCUUGGUUUUUUG

>  <Category Label>
label 1

$$$$
>  <Input Sequence>
GACCAAUCUGCCCUCAGAGCUCGAGAACAUCUUCGGAUGCAGAGGAGACAGGCUUCGGUGGCGCGAUAGCGCCAACGUCCUCAACCACCAAUGCAACCCACCACAUGAUGAUGCCUGAAGAGCCUUGGUUUUUUG

>  <Category Label>
label 1

$$$$
>  <Input Sequence>
GACCAAUCUGCCCUCAGAGCUCGAGAACAUCUUCGGAUGCAGAGGAGGGAGGCUUCGGUGGCGCUAUAGCGCCAACGUCCUCAACCUCCAAUGCAUCCCACCACAUGAUGAUGCCUGAAGAGCCUUGGUUUUUUG

>  <Category Label>
label 0

$$$$
>  <Input Sequence>
GACCAAUCUGCCCUCAGAGCUCGAGAACAUCUUCGGAUGCAGAGGAGGCAGGCUUCGGUGACGCGAUAGCGCCAACGUCCUCAACCUACAAUGCAUCCCACCACAUGAUGAUGGCCGAAGAACCUUGGUUUUUUG

>  <Category Label>
label 0

$$$$
>  <Input Sequence>
GACCAAUAUGCCCUCAGAGCUCGAGAACAUCUUCGGAUACAGAGGAGGCAGGCUUCGGUGGCGCGAUAGCGCCAACGUCCUCAACCUCCAAUGCAUCCCACCACAUGAUGAUGCCUGAAGAGCCUUGGUUUUUUG

>  <Category Label>
label 1

$$$$

Qu. Determine whether measured polymerase ribozyme fitness (log ratio) meets or exceeds -3 for `GACCAAUCUGCCCUCAGAGCUCGAGAACAUCUUCGGAUGCAGAGGAGGCAGGCUUAGGUGGCCCGAUAGCGCCAACGUCCUCAACCUCCAAUGCAUCCCACAACAUGAUGAUGCCUGAAGAGCCUUGGUUUUUUG`
Ans. label 0

Qu. Determine whether measured polymerase ribozyme fitness (log ratio) meets or exceeds -3 for `GACCAAUCUGCCCUCAGAGCUCGAGAACAUCUUCGGAUGAAGAGGUGGCAGGCUUCGGUGGCGCGAUAGCGCCAACGUCCUCAACCUCCAAUGCAUCCCACCACAUGAUGAUGACUGAAGAGCCUUGGUUUUUUG`
Ans. label 0

Qu. Determine whether measured polymerase ribozyme fitness (log ratio) meets or exceeds -3 for `GACCAAUCUGCCCUCAGAGCUCGAGAACAUCUUCGGAUGCAGAGGAGGCAGGCUUCGGUGGCGCGAUAUCGCCAACGUCCUCAACCUCCAAUGCAUCCCACCACAUGAUGAUGCCUGAAGAGCCUUGAUUUUUUG`
Ans. label 1

Qu. Determine whether measured polymerase ribozyme fitness (log ratio) meets or exceeds -3 for `GACCAAUCUGCCCUCAGAGCUCGAGAACAUCUUCGGAUGCAGAGGAGGCAGGCUUCGGUGGCGCGAUAGCGCCAACGUCCUCAACCUCCAAUGCAUCCCACCACAUGAUGAUUACUGAAGAGCCUUGGUUUUUUG`
Ans. label 0
